Measured inhibition in vivo at 150 µmol/kg values are reported for all entries that follow.
test system: Rattus norvegicus; assay: Anti-inflammatory activity in Sprague-Dawley rat model of carrageenan-induced paw edema assessed as inhibition of paw edema volume at 150 umol/kg, po dosed 1 hr before carrageenan challenge and measured 3 hrs post carrageenan challenge; format: functional
Supply the numeric figure in %, leaving out any unit text.

Sample records with inhibition in vivo at 150 µmol/kg:
Value of measured inhibition in vivo at 150 µmol/kg for the entry Cc1nn(-c2ccc(F)cc2)c2c1c(=O)oc1ccccc12 : 39.8

Value of measured inhibition in vivo at 150 µmol/kg for the entry COc1ccc2c(c1)oc(=O)c1c(C)nn(-c3ccc(C(F)(F)F)cc3)c12 : 32.2

Value of measured inhibition in vivo at 150 µmol/kg for the entry Cc1nn(-c2ccc(Br)cc2)c2c1c(=O)oc1ccccc12 : 27.8

New cases:
Value of measured inhibition in vivo at 150 µmol/kg for the entry Cc1nn(-c2ccccc2)c2c1c(=O)oc1ccccc12 : 30.1
